- Tested on: MDA-MB-231 breast
- assay.explanation: NCI tumour cell line growth inhibition, 48 h
// values below are reported TGI

{"columns": ["molecule", "TGI"],
 "data": [
  ["Nc1c(C(=O)Nc2ccccn2)sc2nc3c(cc12)CCCCC3", "> 50 µM"],
  ["O=c1c2ccccc2n2c(=S)[nH]nc2n1-c1ccccc1", "> 100 µM"],
  ["Oc1ccc(-c2cn3ccsc3n2)cc1O", "44.2 µM"],
  ["CC(C)(C)C(=O)CC1(O)C=C(O)C(O)(CC(=O)C(C)(C)C)O1 (configuration not stated)", "> 100 µM"],
  ["Cc1cc(I)cc(CN(C)CCN2CCOCC2)c1O", "> 100 µM"],
  ["O=C1Nc2ccccc2C1(c1c[nH]c2ccccc12)c1c[nH]c2ccccc12", "5.96 µM"],
  ["CC1SC(c2ccc(Cl)c(Cl)c2)N(NC(=O)C(O)c2ccccc2)C1=O (configuration not stated)", "> 100 µM"],
  ["O=C1OC(c2ccccc2)=N/C1=C\\c1ccc(F)cc1", "> 100 µM"],
  ["Cc1ccc(Nc2nc(C)c(C(=O)CC(=O)C(=O)Nc3c(C)cccc3C(C)(C)C)s2)cc1", "> 100 µM"],
  ["CCOc1ccc(NC(=O)/C(=N\\N)C(C(=O)OC)c2nc3ccc(Cl)cc3[nH]c2=O)cc1 (configuration not stated)", "> 100 µM"],
  ["COc1cc2c(c(OC)c1OC)-c1ccc(SC)c(=O)cc1[C@@H](OC(=O)c1ccncc1)CC2", "> 100 µM"],
  ["NN/C(=N\\S(=O)(=O)c1ccc(-c2ccccn2)s1)Nc1ccc(Cl)cc1", "> 100 µM"],
  ["Cc1nc2ccccc2c(/C=C/c2ccc(Cl)cc2)c1C(=O)/C=C/c1ccc(F)cc1", "4.77 µM"],
  ["COc1ccccc1-c1cc(=O)c2ccccc2n1C1CC1", "16 µM"],
  ["CC(C)=NNc1ncnc2c1ncn2C1OC(CO)C(O)C1O (configuration not stated)", "13.6 µM"],
  ["COc1cc2c(cc1OCCCNC(=O)/C=C1/C[C@H]3C=Nc4cc(OCc5ccccc5)c(OC)cc4C(=O)N3C1)NC(=O)[C@@H]1CCCN1C2=O", "> 100 µM"],
  ["COc1cc(CCCl)c(CC2=NCCc3cc(OC)c(OC)cc32)cc1OC", "> 100 µM"],
  ["CC(=O)Nc1ccc(NNc2cc(=O)n(C)c(=O)[nH]2)cc1", "24.8 µM"],
  ["CN(C)CCNC(=O)c1cc([N+](=O)[O-])cn1C", "> 100 µM"],
  ["COC1/C=C/C(C)C(OC)CC(O)/C=C/C(C)C(C(C)C(OC)C(C)CCC(=O)C(C)C(C/C=C/N(C)C=O)OC)OC(=O)/C=C/C=C(\\C)CC(OC)CC2=CC(=O)O[C@@H](C(C)C(OC)C1)[C@H]2O (some centres not stated)", "0.106 µM"],
  ["CC(C)OP(=O)(c1ccccc1)c1ccc2c(c1)OCCOCCOCCOCCO2 (configuration not stated)", "> 100 µM"],
  ["COc1cc(NC(=O)c2ccc(C(F)(F)F)nc2Nc2ccc(Cl)cc2C)cc(OC)c1OC", "14.8 µM"]
]}
